Entries and their phytotoxicity (visual assessment 0-10)
system: Zoysia japonica; test: Turf grass selectivity, greenhouse pot test; assay type: in vivo; conditions: Zoysia japonica, 12 g ai/ha, 4 weeks

{"Compound": "COc1nc(C)nc(NC(=O)NS(=O)(=O)c2cscc2C2(CF)OCCO2)n1", "phytotoxicity (visual assessment 0-10)": 0}
{"Compound": "CCOC(=O)c1cnn(C)c1S(=O)(=O)NC(=O)Nc1nc(OC)cc(OC)n1 [Control chemical No. 1, Pyrazosulfuron ethyl, reference compound]", "phytotoxicity (visual assessment 0-10)": 0}
{"Compound": "COc1cc(OC)nc(NC(=O)NS(=O)(=O)c2ncccc2C(F)(F)F)n1 [Control chemical No. 2, Flazasulfuron, reference compound]", "phytotoxicity (visual assessment 0-10)": 0}
{"Compound": "Cc1cc(C)nc(NC(=O)NS(=O)(=O)c2ccccc2C(O)C(C)F)n1 (stereo not shown)", "phytotoxicity (visual assessment 0-10)": 0}

---

system: Veronica officinalis; assay: Weed spectrum, greenhouse pot test; type: in vivo; conditions: Post-emergence, 12 g ai/ha, two weeks after application

{"Compound": "COc1nc(C)nc(NC(=O)NS(=O)(=O)c2cscc2C2(CF)OCCO2)n1 [Example 2]", "Target or test system": "Veronica officinalis", "efficacy (0-100 scale)": 20}
{"Compound": "Cc1cc(C)nc(NC(=O)NS(=O)(=O)c2ccccc2C(O)C(C)F)n1 (stereo not shown) [Example 1]", "Target or test system": "Veronica officinalis", "efficacy (0-100 scale)": 20}
{"Compound": "CCOC(=O)c1cnn(C)c1S(=O)(=O)NC(=O)Nc1nc(OC)cc(OC)n1 [Control chemical No. 1, Pyrazosulfuron ethyl, reference compound]", "Target or test system": "Veronica officinalis", "efficacy (0-100 scale)": 10}
{"Compound": "COc1cc(OC)nc(NC(=O)NS(=O)(=O)c2ncccc2C(F)(F)F)n1 [Control chemical No. 2, Flazasulfuron, reference compound]", "Target or test system": "Veronica officinalis", "efficacy (0-100 scale)": 10}

---

test system: Bentgrass; assay: Turf grass selectivity, greenhouse pot test; format: in vivo, Agrostris palustris; conditions: 6 g ai/ha, 4 weeks
Entries and their phytotoxicity (visual assessment 0-10)
Property: phytotoxicity (visual assessment 0-10)

{"Molecule": "CCOC(=O)c1cnn(C)c1S(=O)(=O)NC(=O)Nc1nc(OC)cc(OC)n1 [Control chemical No. 1, Pyrazosulfuron ethyl, reference compound]", "Result number": 0}
{"Molecule": "Cc1cc(C)nc(NC(=O)NS(=O)(=O)c2ccccc2C(O)C(C)F)n1 (stereo not shown) [Example 1]", "Result number": 0}
{"Molecule": "COc1cc(OC)nc(NC(=O)NS(=O)(=O)c2ncccc2C(F)(F)F)n1 [Control chemical No. 2, Flazasulfuron, reference compound]", "Result number": 10}
{"Molecule": "COc1nc(C)nc(NC(=O)NS(=O)(=O)c2cscc2C2(CF)OCCO2)n1 [Example 2]", "Result number": 3}

---

Entries and their phytotoxicity (visual assessment 0-10)
system: Kentucky bluegrass; experiment: Turf grass selectivity, greenhouse pot test; assay type: in vivo, Poa pratensis; conditions: 12 g ai/ha, 2 weeks
Property: phytotoxicity (visual assessment 0-10)

{"Compound": "Cc1cc(C)nc(NC(=O)NS(=O)(=O)c2ccccc2C(O)C(C)F)n1 (stereo not shown)", "Result": 0}
{"Compound": "CCOC(=O)c1cnn(C)c1S(=O)(=O)NC(=O)Nc1nc(OC)cc(OC)n1 [Control chemical No. 1, Pyrazosulfuron ethyl, reference compound]", "Result": 0}
{"Compound": "COc1nc(C)nc(NC(=O)NS(=O)(=O)c2cscc2C2(CF)OCCO2)n1", "Result": 7}
{"Compound": "COc1cc(OC)nc(NC(=O)NS(=O)(=O)c2ncccc2C(F)(F)F)n1 [Control chemical No. 2, Flazasulfuron, reference compound]", "Result": 10}
